Across several publications, the following IC50 results were reported for mitochondrial RNA-polymerase (POLRMT) (Mus musculus, UniProt Q8BKF1).

Known IC50 results, listed for orientation:
COC(=O)C1CCCN(C(=O)C(C)Oc2ccc3c(-c4ccccc4)cc(=O)oc3c2)C1 (centres unmarked) = 100 to 1000 nM
CC(Oc1cc(F)c2c(-c3ccccc3)cc(=O)oc2c1)C(=O)N(C)C (centres unmarked) = 1000 to 10000 nM
Cc1cc(F)cc(C)c1-c1ccnc2nc(O[C@H](C)C(=O)N3CCC[C@H](CC(=O)O)C3)ccc12 = < 20 nM
CCOC(=O)[C@H]1CCCN(C(=O)COc2ccc3c(-c4ccccc4Cl)ccnc3c2)C1 = 1000 to 10000 nM
C[C@@H](Oc1ccc2c(-c3ccc(F)cc3Cl)cc(=O)oc2c1)C(=O)N1CCC[C@H](CC(=O)OCCN2CCOCC2)C1 = < 20 nM

IC50 measured on CCOC(=O)CC1CCCN(C(=O)C(C)Oc2ccc3c(-c4ccccc4Cl)cc(=O)oc3c2)C1 (centres unmarked) = 20 to 100 nM

IC50 in this record for Cc1ccccc1-c1cc(=O)oc2cc(OC(C)(C)C(=O)NC(C)C)ccc12 : 100 to 1000 nM

Given item C[C@H](Oc1ccc2c(-c3ccccc3Cl)ccnc2c1)C(=O)N1CCC[C@H](C(=O)O)C1 , the value recorded as its IC50 is 100 to 1000 nM
